Data origin, for the record: patent US20240293392A1

TARGET: recombinant N-terminal PMS2 (residues 1-365) (Homo sapiens)
Construct: recombinant N-terminal PMS2 (residues 1-365)
Sequence (P54278 1-365): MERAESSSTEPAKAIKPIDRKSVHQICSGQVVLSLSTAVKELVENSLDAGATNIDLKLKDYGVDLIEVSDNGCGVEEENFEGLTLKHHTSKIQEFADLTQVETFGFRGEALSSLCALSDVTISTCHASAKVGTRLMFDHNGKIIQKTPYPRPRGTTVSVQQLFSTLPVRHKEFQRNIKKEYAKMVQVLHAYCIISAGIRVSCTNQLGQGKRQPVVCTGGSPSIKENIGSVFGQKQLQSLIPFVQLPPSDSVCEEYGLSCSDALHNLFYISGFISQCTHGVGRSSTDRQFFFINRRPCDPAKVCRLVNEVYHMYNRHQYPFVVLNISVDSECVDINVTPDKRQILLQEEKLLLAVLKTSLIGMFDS
ASSAY_SUMMARY: Fluorescence Polarisation Assay for PMS2
Format: binding
CONDITION_DETAILS: fluorescence polarisation probe displacement; 10 nM N-terminal PMS2, 5 nM probe compound; read-out: PMS2 IC50
pIC50: −log10 of the molar value.
Reported pIC50 values are given for each entry in this list.

The following compounds have reported results that may help.
{"columns": ["COMPOUND", "METRIC", "OBS_VALUE"],
 "data": [
  ["CN1CCN(Cc2cc3c(c(N[C@@H]4CCOC4)c2)CN(C(=O)c2c(O)cc(O)cc2OCc2ccccc2)CC3)CC1", "pIC50", "5.00 to 6.00"],
  ["CN(C)CCOc1cc2c(c(N[C@@H]3CCOC3)c1)CN(C(=O)c1c(O)cc(O)cc1OCc1ccccc1)CC2", "pIC50", "5.00 to 6.00"],
  ["O=C(c1c(O)cc(O)cc1OCc1ccccc1)N1CCc2cccc(NC3CCS(=O)(=O)C3)c2C1 (single isomer, unassigned) [Example 147b]", "pIC50", "5.00 to 6.00"],
  ["CC(=O)Nc1cccc2c1CN(C(=O)c1c(O)cc(O)cc1OCc1ccccc1)C2", "pIC50", "5.00 to 6.00"],
  ["O=C(c1c(O)cc(O)cc1OCc1ccccc1)N1Cc2cccc(NC3CCOCC3)c2C1", "pIC50", "5.00 to 6.00"],
  ["CC(=O)N1CC[C@@H](Nc2cccc3c2CN(C(=O)c2c(O)cc(O)cc2OCc2ccccc2)CC3)C1", "pIC50", "< 5.00"],
  ["O=C(c1c(O)cc(O)cc1OCc1ccccc1)N1Cc2ccc(CN3CCOCC3)cc2C1", "pIC50", "> 6.00"],
  ["CC(=O)N1CCC(Nc2cccc3c2CN(C(=O)c2c(O)cc(O)cc2OCc2ccccc2)CC3)CC1", "pIC50", "< 5.00"]
]}

Kindly review the next compound as well.
Given `CN1C[C@H](Nc2cccc3c2CN(C(=O)c2c(O)cc(O)cc2OCc2ccccn2)CC3)CC1=O` , state its recorded pIC50.
5.00 to 6.00
